# TESTED_SYSTEM: CaFus1
# PROTOCOL: SPOT peptide array binding signal intensity (averaged, normalized) (arbitrary units (background-subtracted, floor 0; scale differs between SH3 domains)); higher = stronger binding of the SH3 domain to the peptide
Decision: SPOT peptide array binding signal intensity compared against 600; not below it gives Fulfilled, below it gives Not fulfilled.

QLLNPNRRAPRRPLS Not fulfilled
PSRRAPLQLPQLVNK Not fulfilled
FTLPPPPPPPGLDEL Not fulfilled
HPRFVSPRIPSRIVK Not fulfilled
PLRRTVMSLPGNHDI Fulfilled

We next turn to a different binder, shown below.
Decide: SPOT peptide array binding signal intensity of "DHPKGPPPPPPPDEK" >= 600?
Not fulfilled

# credit: the supplement of paper PMC4466140
